# Target Desc: TGFβR2 (Homo sapiens, UniProt P37173)
# Sequence (P37173 23-567): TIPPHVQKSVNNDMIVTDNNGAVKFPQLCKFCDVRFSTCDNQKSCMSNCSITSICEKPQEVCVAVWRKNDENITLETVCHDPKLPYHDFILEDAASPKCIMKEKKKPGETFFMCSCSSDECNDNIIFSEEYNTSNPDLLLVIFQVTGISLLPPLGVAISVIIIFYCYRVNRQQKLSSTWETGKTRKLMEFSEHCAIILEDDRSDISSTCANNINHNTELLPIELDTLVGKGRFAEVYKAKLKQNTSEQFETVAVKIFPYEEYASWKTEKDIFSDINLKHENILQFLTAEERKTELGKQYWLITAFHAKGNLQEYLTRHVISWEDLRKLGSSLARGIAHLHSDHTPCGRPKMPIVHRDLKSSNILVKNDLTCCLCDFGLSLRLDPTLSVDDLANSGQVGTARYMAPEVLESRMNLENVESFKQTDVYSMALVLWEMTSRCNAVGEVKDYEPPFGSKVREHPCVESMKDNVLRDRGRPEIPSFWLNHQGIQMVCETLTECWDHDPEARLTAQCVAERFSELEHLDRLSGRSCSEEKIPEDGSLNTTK
# Experiment Summary: Biochemical TGFβR2 assay (LanthaScreen Europium Kinase Binding Assay)
# Test Settings: geometric mean; tracer displacement, five concentrations 1.0-0.0039 μM in duplicate; read-out: TGFBR2 GMean: IC50 (μM) (Biochemical Assay)
Readout Type: IC50

For O=C(NC1CC(O)C1)c1cccc(-c2cnc3[nH]c(-c4cnn(C(F)F)c4)cc3c2)n1 (centres unmarked) , what is its reported IC50?
0.0001 to 10 µM

Dear colleague, I am looking for the recorded IC50 of the following compound: CC(C)(O)CNC(=O)c1cccc(-c2cnc3[nH]c(-c4cnn(C(F)F)c4)cc3c2)n1
0.0001 to 10 µM

Please look up its IC50: O=C(Nc1ncc[nH]1)c1cccc(-c2cnc3[nH]c(-c4cnn(C(F)F)c4)cc3c2)n1
0.0001 to 10 µM

Sample O=C(NC1COC1)c1cccc(-c2cnc3[nH]c(-c4cnn(C(F)F)c4)cc3c2)n1 — what was its IC50?
0.0001 to 10 µM

Recorded IC50 of O=C(Nc1ccn[nH]1)c1cccc(-c2cnc3[nH]c(-c4cnn(C(F)F)c4)cc3c2)n1 , please.
0.0001 to 10 µM

# lookup: IC50 of O=C(Nc1nnc[nH]1)c1cccc(-c2cnc3[nH]c(-c4cnn(C(F)F)c4)cc3c2)n1
0.0001 to 10 µM

Consider the compound shown here: N#CC1(NC(=O)c2cccc(-c3cnc4[nH]c(-c5cnn(C(F)F)c5)cc4c3)n2)CC1 What is its recorded IC50?
0.0001 to 10 µM

Look at this compound and give its reported IC50. CC(C)(C#N)NC(=O)c1cccc(-c2cnc3[nH]c(-c4cnn(CC#N)c4)cc3c2)n1
0.0001 to 10 µM

* * *

# Target Desc: TGFβR2 (Homo sapiens)
# Experiment Summary: Biochemical TGFβR2 assay (LanthaScreen Europium Kinase Binding Assay)
# Test Settings: geometric mean; tracer displacement, five concentrations 1.0-0.0039 μM in duplicate; read-out: TGFBR2 GMean: IC50 (μM) (Biochemical Assay)
Kindly state IC50 for each of the entries shown.

Tell me the measured IC50 of CC(C)(C#N)NC(=O)c1cccc(-c2cnc3[nH]c(-c4cnn(C(F)F)c4)c(F)c3c2)n1 [P-004] , please.
0.0001 to 10 µM

Data request, read-out IC50, for CC(C)(C#N)NC(=O)c1cccc(-c2cnc3[nH]c(-c4c(F)nn(C(F)F)c4F)c(F)c3c2)n1 [P-003]
0.0001 to 10 µM

Recorded IC50 of CC(C)(C#N)NC(=O)c1cc(F)cc(-c2cnc3[nH]c(-c4cnn(C(F)F)c4)cc3c2)n1 [P-024] , please.
0.0001 to 10 µM

Query: IC50; subject: O=C(Nc1cnc[nH]1)c1cccc(-c2cnc3[nH]c(-c4cnn(C(F)F)c4)cc3c2)n1 [P-017]
0.0001 to 10 µM

Requested field: IC50. Item: O=C(NC1CS(=O)(=O)C1)c1cccc(-c2cnc3[nH]c(-c4cnn(C(F)F)c4)cc3c2)n1 [P-010]
0.0001 to 10 µM

What value of IC50 has been reported for the following compound? CC(C)(C#N)NC(=O)c1cncc(-c2cnc3[nH]c(-c4cnn(C(F)F)c4)cc3c2)n1 [P-021]
0.0001 to 10 µM

For the compound N#CC1(CNC(=O)c2cccc(-c3cnc4[nH]c(-c5cnn(C(F)F)c5)cc4c3)n2)CC1 [P-008] , what IC50 is on record?
0.0001 to 10 µM

Give the measured IC50 of CN1CC(NC(=O)c2cccc(-c3cnc4[nH]c(-c5cnn(C(F)F)c5)cc4c3)n2)C1 [P-015] .
0.0001 to 10 µM

Field request: IC50 | item: O=C(NCC1(O)CC1)c1cccc(-c2cnc3[nH]c(-c4cnn(C(F)F)c4)cc3c2)n1 [P-012]
0.0001 to 10 µM

Could you share which IC50 value was measured for CC(C)(C#N)NC(=O)c1cccc(-c2cnc3[nH]c(-c4cnn(C(F)F)c4)c(Br)c3c2)n1 [P-005] ?
0.0001 to 10 µM

Recorded IC50 for O=C(NCC1(O)CCC1)c1cccc(-c2cnc3[nH]c(-c4cnn(C(F)F)c4)cc3c2)n1 [P-013] , please?
0.0001 to 10 µM

Recorded IC50 of N#CC1(NC(=O)c2cccc(-c3cnc4[nH]c(-c5cnn(C(F)F)c5)cc4c3)n2)CCC1 [P-007] , please.
0.0001 to 10 µM

* * *

# Target Desc: FLT3 D835Y (Homo sapiens, UniProt P36888, D835Y)
# Sequence (P36888 27-993 D835Y): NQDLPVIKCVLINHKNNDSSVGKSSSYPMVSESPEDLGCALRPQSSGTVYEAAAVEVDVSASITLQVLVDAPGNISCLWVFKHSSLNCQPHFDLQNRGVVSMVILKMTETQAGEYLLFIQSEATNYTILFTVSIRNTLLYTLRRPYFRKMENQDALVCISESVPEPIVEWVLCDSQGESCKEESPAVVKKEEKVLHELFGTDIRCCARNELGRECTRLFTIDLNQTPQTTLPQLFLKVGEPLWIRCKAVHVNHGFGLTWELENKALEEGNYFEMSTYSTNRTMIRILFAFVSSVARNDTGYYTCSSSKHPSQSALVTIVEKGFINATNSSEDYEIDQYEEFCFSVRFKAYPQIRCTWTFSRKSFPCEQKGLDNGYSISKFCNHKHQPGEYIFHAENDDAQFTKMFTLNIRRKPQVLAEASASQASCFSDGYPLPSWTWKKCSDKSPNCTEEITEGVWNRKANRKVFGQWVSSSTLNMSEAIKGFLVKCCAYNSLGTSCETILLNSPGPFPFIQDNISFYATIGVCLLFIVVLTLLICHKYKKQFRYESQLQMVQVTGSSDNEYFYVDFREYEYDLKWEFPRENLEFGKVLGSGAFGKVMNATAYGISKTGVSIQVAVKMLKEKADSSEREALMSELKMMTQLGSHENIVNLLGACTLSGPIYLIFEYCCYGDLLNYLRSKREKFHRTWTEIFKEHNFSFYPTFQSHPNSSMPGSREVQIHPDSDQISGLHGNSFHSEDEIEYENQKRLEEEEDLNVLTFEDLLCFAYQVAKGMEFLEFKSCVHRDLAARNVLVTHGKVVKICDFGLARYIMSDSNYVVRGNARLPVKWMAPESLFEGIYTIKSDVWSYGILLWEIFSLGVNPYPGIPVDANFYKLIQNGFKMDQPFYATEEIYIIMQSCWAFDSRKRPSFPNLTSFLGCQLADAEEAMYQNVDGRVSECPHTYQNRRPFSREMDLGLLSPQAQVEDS
# Experiment Summary: Biochemical FLT3 D835Y assay
# Test Settings: geometric mean; assay as in US2017/0267660; read-out: FLT3 D835Y GMean: IC50 (μM) (Biochemical Assay)
Please provide measured IC50 for the entries that follow.

# query: IC50 of entry CC(C)(C#N)NC(=O)c1cccc(-c2cnc3[nH]c(-c4c(F)nn(C(F)F)c4F)c(F)c3c2)n1
0.0001 to 10 µM

I would be grateful if you could share the reported IC50 for O=C(Nc1cnc[nH]1)c1cccc(-c2cnc3[nH]c(-c4cnn(C(F)F)c4)cc3c2)n1 .
0.0001 to 10 µM

Which IC50 value is on record for N#CC1(NC(=O)c2cccc(-c3cnc4[nH]c(-c5cnn(C(F)F)c5)cc4c3)n2)CCC1 ?
0.0001 to 10 µM

Look up IC50 for this molecule: CC(C)(C#N)NC(=O)c1cc(F)cc(-c2cnc3[nH]c(-c4cnn(C(F)F)c4)cc3c2)n1
0.0001 to 10 µM

What value of IC50 has been reported for the following molecule? O=C(NCC1(O)CC1)c1cccc(-c2cnc3[nH]c(-c4cnn(C(F)F)c4)cc3c2)n1
0.0001 to 10 µM

Name the reported IC50 value associated with the molecule CN1CC(NC(=O)c2cccc(-c3cnc4[nH]c(-c5cnn(C(F)F)c5)cc4c3)n2)C1
0.0001 to 10 µM

What IC50 value was documented for this molecule, CC(C)(C#N)NC(=O)c1cncc(-c2cnc3[nH]c(-c4cnn(C(F)F)c4)cc3c2)n1 ?
0.0001 to 10 µM

Field request: IC50 | item: O=C(NC1CC(O)C1)c1cccc(-c2cnc3[nH]c(-c4cnn(C(F)F)c4)cc3c2)n1 (centres unmarked)
0.0001 to 10 µM

* * *

# Target Desc: FLT3 D835Y (Homo sapiens, UniProt P36888, D835Y)
# Experiment Summary: Biochemical FLT3 D835Y assay
# Test Settings: geometric mean; assay as in US2017/0267660; read-out: FLT3 D835Y GMean: IC50 (μM) (Biochemical Assay)
Readout Type: IC50

Query the reported IC50 for FLT3 D835Y (Homo sapiens, UniProt P36888, D835Y); item: O=C(Nc1ccn[nH]1)c1cccc(-c2cnc3[nH]c(-c4cnn(C(F)F)c4)cc3c2)n1
0.0001 to 10 µM

Value wanted: IC50 (FLT3 D835Y (Homo sapiens, UniProt P36888, D835Y)) of entry O=C(Nc1nnc[nH]1)c1cccc(-c2cnc3[nH]c(-c4cnn(C(F)F)c4)cc3c2)n1
0.0001 to 10 µM

Lab note: need IC50 with FLT3 D835Y (Homo sapiens, UniProt P36888, D835Y) for entry O=C(NC1COC1)c1cccc(-c2cnc3[nH]c(-c4cnn(C(F)F)c4)cc3c2)n1 , please look it up.
0.0001 to 10 µM

Please state recorded IC50 (tested on FLT3 D835Y (Homo sapiens, UniProt P36888, D835Y)) of O=C(Nc1ncc[nH]1)c1cccc(-c2cnc3[nH]c(-c4cnn(C(F)F)c4)cc3c2)n1
0.0001 to 10 µM

Could you share what IC50 was measured for CC(C)(O)CNC(=O)c1cccc(-c2cnc3[nH]c(-c4cnn(C(F)F)c4)cc3c2)n1 , tested on FLT3 D835Y (Homo sapiens, UniProt P36888, D835Y)?
0.0001 to 10 µM

Lab request: please report IC50 under test system FLT3 D835Y (Homo sapiens, UniProt P36888, D835Y) for CC(C)(C#N)NC(=O)c1cccc(-c2cnc3[nH]c(-c4cnn(C(F)F)c4)c(F)c3c2)n1
0.0001 to 10 µM

Find the measured IC50: item O=C(NCC1(O)CCC1)c1cccc(-c2cnc3[nH]c(-c4cnn(C(F)F)c4)cc3c2)n1 , target or system FLT3 D835Y (Homo sapiens, UniProt P36888, D835Y).
0.0001 to 10 µM

Hello, I am looking for reported IC50 with FLT3 D835Y (Homo sapiens, UniProt P36888, D835Y) for N#CC1(CNC(=O)c2cccc(-c3cnc4[nH]c(-c5cnn(C(F)F)c5)cc4c3)n2)CC1 . Could you help?
0.0001 to 10 µM
